observed property: pKi
API: returns pKi as number; meaning -log10 of concentration in mol/L.

Query: Tyrosine-protein phosphatase non-receptor type 1 [1-301] (Homo sapiens) / pKi / O=C(/C=C/c1ccc(O)c(O)c1)O[C@@H](C(=O)O)[C@@H](OC(=O)/C=C/c1ccc(O)c(O)c1)C(=O)O : value?
Response: 2.85
